test: Partition coefficient, log P of the compound; assay type: physicochemical; details: octanol/water
Measured Attribute: logP
Please reply with the value in numeric form only.

Below: 5 compounds and their reported logP.
>>> recorded_result("COc1ccc(/C=C2\\CCC/C(=C\\c3ccc([N+](=O)[O-])cc3)C2=O)cc1")
4.98
>>> recorded_result("COc1ccc(/C=C2\\CCC/C(=C\\c3cccc([N+](=O)[O-])c3)C2=O)cc1")
4.96
>>> recorded_result("O=C1/C(=C/c2ccccc2)CCC/C1=C\\c1ccc([N+](=O)[O-])cc1")
4.93
>>> recorded_result("O=C1/C(=C/c2ccc(F)cc2)CCC/C1=C\\c1cccc([N+](=O)[O-])c1")
5.07
>>> recorded_result("O=C1/C(=C/c2ccccc2)CCC/C1=C\\c1cccc([N+](=O)[O-])c1")
4.9

Switching to the query record.
Give logP for CN(C)c1ccc(/C=C2\CCC/C(=C\c3ccc([N+](=O)[O-])cc3)C2=O)cc1 5.03

====

test system: HSC-4; test: Cytotoxicity against human HSC4 cells after 24 hrs; assay type: functional; conditions: HSC-4, 24 h
Measured Attribute: CC50

>>> recorded_result("COc1ccc(/C=C2\\CCC/C(=C\\c3ccc([N+](=O)[O-])cc3)C2=O)cc1")
"> 400 µM"
>>> recorded_result("COc1cc(OC)c(/C=C2\\CCC/C(=C\\c3ccc([N+](=O)[O-])cc3)C2=O)c(OC)c1")
"> 400 µM"

# input for lookup
Recall and state the measured CC50 for CN(C)c1ccc(/C=C2\CCC/C(=C\c3ccccc3[N+](=O)[O-])C2=O)cc1 . > 400 µM
